- assay.target: UniProt:P11387
- Sequence (P11387 whole entry): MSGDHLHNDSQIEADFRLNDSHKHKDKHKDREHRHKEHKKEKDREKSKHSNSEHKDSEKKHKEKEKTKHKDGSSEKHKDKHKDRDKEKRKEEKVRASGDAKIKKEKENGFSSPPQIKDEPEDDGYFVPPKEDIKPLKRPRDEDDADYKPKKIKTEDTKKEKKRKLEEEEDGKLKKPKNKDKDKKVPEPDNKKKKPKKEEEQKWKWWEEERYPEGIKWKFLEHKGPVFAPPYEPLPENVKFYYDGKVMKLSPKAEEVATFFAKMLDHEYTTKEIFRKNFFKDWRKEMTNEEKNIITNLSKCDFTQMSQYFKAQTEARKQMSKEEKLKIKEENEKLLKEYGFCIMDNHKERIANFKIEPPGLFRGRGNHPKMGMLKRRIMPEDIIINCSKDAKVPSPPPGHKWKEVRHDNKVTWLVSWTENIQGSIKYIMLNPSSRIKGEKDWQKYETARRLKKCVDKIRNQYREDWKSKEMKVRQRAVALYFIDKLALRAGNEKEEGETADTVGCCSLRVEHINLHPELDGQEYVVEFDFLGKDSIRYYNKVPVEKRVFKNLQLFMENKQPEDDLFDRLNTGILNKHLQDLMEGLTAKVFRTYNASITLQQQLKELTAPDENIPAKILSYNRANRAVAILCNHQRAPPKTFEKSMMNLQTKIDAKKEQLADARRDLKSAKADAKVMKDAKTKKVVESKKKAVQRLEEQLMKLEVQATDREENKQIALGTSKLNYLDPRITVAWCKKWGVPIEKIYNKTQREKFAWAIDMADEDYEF
- assay.procedure: Inhibition of topoisomerase 1 (unknown origin)-mediated relaxation of supercoiled plasmid DNA assessed as intensity of supercoiled DNA after 30 mins by agarose gel electrophoresis relative to camptothecin
endpoint: fold change (FC)

Solved cases below.
- smiles.str: "CC1(C)CC[C@]2(C(=O)O)CC[C@]3(C)C(=CC[C@@H]4[C@@]5(C)CC[C@H](OS(=O)(=O)c6ccccc6)C(C)(C)[C@@H]5CC[C@]43C)[C@@H]2C1"
  fold change (FC): 0.54
- smiles.str: "CC1(C)CC[C@]2(C(=O)O)CC[C@]3(C)C(=CC[C@@H]4[C@@]5(C)CC[C@H](OC(=O)Nc6ccc(-c7ccccc7)cc6)C(C)(C)[C@@H]5CC[C@]43C)[C@@H]2C1"
  fold change (FC): 0.79
- smiles.str: "CC1(C)CC[C@]2(C(=O)O)CC[C@]3(C)C(=CC[C@@H]4[C@@]5(C)CC[C@H](O)C(C)(C)[C@@H]5CC[C@]43C)[C@@H]2C1"
  fold change (FC): 0.84

Now consider a different molecule.
## Task Give recorded fold change (FC) with UniProt:P11387 for the following molecule: CC1(C)CC[C@]2(C(=O)O)CC[C@]3(C)C(=CC[C@@H]4[C@@]5(C)CC[C@H](OC(=O)Nc6cccc7ccccc67)C(C)(C)[C@@H]5CC[C@]43C)[C@@H]2C1
## Result 0.4
